Collected response values appear next to each entry.
experiment: cytosolic pH regulators acting via V-ATPase – S. cerevisiae, pHLuorin, HTS validation (AID 504600); settings: V-ATPase proton transport, at 10 µM, stronger effect = higher value;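 note: plate controls were DMSO for no effect and reference compound for full effect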
Numeric only. Scale: %

Example entries and their recorded answers appear below.
| molecule | value_reported |
| --- | --- |
| Cc1ccc(CN2CCN(CCCc3ccccc3)CC2CCO)cc1 (stereo unspecified) | -5.49 |
| O=c1[nH]cc(F)c(=O)[nH]1 | 1.44 |
| CC(=O)N1c2ccccc2C(C)=CC1(C)C | -0.45 |
| CSc1ccc(CN2CCN(CCC(C)C)C(CCO)C2)cc1 (stereo unspecified) | 2.63 |
| CN(C)CCOC(c1ccccc1)c1ccccc1 (tested in a mixture with another compound) | -1 |
| CCCc1cc(C(N)=S)ccn1 | -1.93 |
| COc1ccc(CCN2C(=O)CSC2c2ccc(OC)c(OC)c2)cc1OC (stereo unspecified) | -1.47 |
| CCC(C)NCCOCCOc1ccc(Cl)cc1Br (stereo unspecified) | -10.6 |
| Cc1ccc(OCCCCn2ccnc2C)c(C)c1 | 3.03 |
| COc1ccc(-c2noc(-c3ccccc3-c3ccccc3)n2)cc1 | -3.56 |

Q: # response lookup, item `Cc1nonc1CN(C)C(=O)c1ccc(OC2CCN(C(=O)c3cccnc3)CC2)cc1`
Result: 2.88

Q: Value lookup for response; key = OC(C#CCN1CCCC1)(c1ccccc1)c1cccnc1 (stereo unspecified)
Result: 1.86

Q: Field request: response | item: `C/C=C(/C(=C/C)c1ccc(O)cc1)c1ccc(O)cc1`
Result: -1.75

Q: Requested field: response. Item: `CCC(=O)Nc1ccc(C(=O)N2CCN(C(=O)c3ccco3)CC2)cc1`
Result: -1.11

Q: Looking for the measured response of `Nc1ccc(S(N)(=O)=O)cc1N` , can you help?
Result: 0.32
